Tested on: Klebsiella pneumoniae
Experimental Context: Concentration 32 ug.mL-1;; ASSAY_TEST Inhibition of Bacterial Growth; detection method Absorption (OD600); MEDIA CAMHB; plate type 384well; NBS; CORNING #3640; time 18 hr
Description: Antibacterial activity against Klebsiella pneumoniae MDR ATCC 70063 (CO-ADD:GN_003); MIC in CAMBH media using NBS plates, by OD(600)
Results with a measured potency or affinity are listed apart.
Measurement Type: Inhibition (%)
Response body: numeric value in %, unit text excluded.

**Q:** For CCC(C)NC(=O)c1ccc2c(=O)n(CCC(C)C)c3nn(CC#N)c(=O)n3c2c1 (stereo not given) , what is its reported Inhibition?
**A:** 14.77

**Q:** Also `O=C(Cn1nc2c(Oc3ccccc3)nccn2c1=O)Nc1cc(F)ccc1F` , if possible.
**A:** -4.08

**Q:** Also `COc1ccc(N(Cc2cccc(Cl)c2)S(=O)(=O)c2ccc3nnc(C)n3c2)cc1` , if possible.
**A:** 12.69

**Q:** Also `COc1cccc(-n2ccn3c(SCC(=O)c4ccc(F)cc4)nnc3c2=O)c1` , if possible.
**A:** 12.25

**Q:** Also `COc1ccccc1-n1ccn2c(=O)n(Cc3ccc(F)cc3Cl)nc2c1=O` , if possible.
**A:** 1.73

**Q:** Also `Cc1ccc(-c2ccc3nn(CC(=O)Nc4ccc(Cl)cc4)c(=O)n3n2)cc1C` , if possible.
**A:** 17.23

**Q:** Also `CCc1ccc(NC(=O)Cn2nc3cc(C)nc(Nc4ccc(F)c(C)c4)n3c2=O)cc1` , if possible.
**A:** 8.35

**Q:** Also `CCCCOc1ccc(-c2cc3c4nnc(SCC(=O)N(C)c5ccc(F)cc5)n4ccn3n2)cc1` , if possible.
**A:** 3.98

***
**Q:** For `COc1ccc(NC(=O)Cn2nc3ccc(SCc4ccc(Cl)cc4)nn3c2=O)cc1` , what is its reported Inhibition?
**A:** 1.71

**Q:** Also `CCOc1ccccc1NC(=O)Cn1nc2c(Oc3cccc(OC)c3)nccn2c1=O` , if possible.
**A:** 8.86

**Q:** Also `Cc1ccc(-c2ccc3nn(CC(=O)Nc4ccc(Cl)c(C(F)(F)F)c4)c(=O)n3n2)cc1C` , if possible.
**A:** 0.66

meta.source: ChEMBL document CHEMBL4513146
